src = patent US20240116985A1

# test.system: beta-catenin/TCF4 engagement (Homo sapiens, UniProt P35222)
# Construct: expressed in transfected cells; host or cells: HEK293
# Sequence (P35222 1-781): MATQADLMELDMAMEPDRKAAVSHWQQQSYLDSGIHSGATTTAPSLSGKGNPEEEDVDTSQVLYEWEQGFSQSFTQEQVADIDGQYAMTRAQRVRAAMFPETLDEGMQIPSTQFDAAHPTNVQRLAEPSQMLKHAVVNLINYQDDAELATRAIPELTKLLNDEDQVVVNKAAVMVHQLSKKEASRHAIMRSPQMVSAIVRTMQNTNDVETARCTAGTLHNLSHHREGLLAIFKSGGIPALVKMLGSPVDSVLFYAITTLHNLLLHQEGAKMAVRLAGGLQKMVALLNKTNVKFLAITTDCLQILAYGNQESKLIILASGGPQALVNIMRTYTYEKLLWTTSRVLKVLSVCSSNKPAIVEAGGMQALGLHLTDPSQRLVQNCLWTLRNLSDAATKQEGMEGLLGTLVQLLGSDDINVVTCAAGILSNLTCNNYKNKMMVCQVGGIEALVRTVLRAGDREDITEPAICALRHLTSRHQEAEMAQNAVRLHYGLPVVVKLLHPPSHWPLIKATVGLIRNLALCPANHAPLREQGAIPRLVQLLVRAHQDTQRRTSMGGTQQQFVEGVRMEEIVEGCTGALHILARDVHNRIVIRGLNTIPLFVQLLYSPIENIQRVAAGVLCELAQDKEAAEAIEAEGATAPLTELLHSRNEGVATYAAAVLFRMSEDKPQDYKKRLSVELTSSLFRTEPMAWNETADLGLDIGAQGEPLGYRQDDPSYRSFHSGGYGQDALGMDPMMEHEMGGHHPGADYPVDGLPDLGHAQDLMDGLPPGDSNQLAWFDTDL
# experiment.summary: Nano-BRET target engagement assay (B-cat-Halo & TCF4-Luc in HEK293 cells)
# Format: cell-based
# particulars: read-out: NanoBRET Abs IC50
reported.property: IC50
Could you write the number and then its unit?

1. CC(=O)N1CCC[C@]12CC=CCCCC1(CCCC=CCCCCCC[C@@](C)(C(=O)N[C@@H](Cc3ccccc3Cl)C(=O)N[C@@H](Cc3csc4ccccc34)C(=O)N[C@@H](CCC(N)=O)C(N)=O)NC(=O)[C@H]([C@@H](C)O)NC(=O)[C@H](Cc3ccccc3)NC(=O)[C@H](C)NC(=O)[C@H](C)NC(=O)[C@H](CC(=O)O)NC(=O)[C@H](CC(=O)O)NC1=O)NC(=O)[C@H](CC(C)(C)C)NC(=O)[C@H](CC(=O)O)NC2=O (some centres unmarked) [I-1086] | 10.1 µM

Alright, here's another molecule for you.
If you can, please state the reported IC50 value of CC(=O)N1CCC[C@]12CC=CCCCC1(CCCC=CCCCCCC[C@@](C)(C(=O)N[C@@H](Cc3ccccc3Cl)C(=O)N[C@@H](Cc3csc4ccccc34)C(=O)N[C@@H](CCC(N)=O)C(N)=O)NC(=O)[C@H](CC(C)C)NC(=O)[C@H](Cc3ccccc3)NC(=O)[C@H](C)NC(=O)[C@H](C)NC(=O)[C@H](CCC(=O)O)NC(=O)[C@H](CC(=O)O)NC1=O)NC(=O)[C@H](CC(C)(C)C)NC(=O)[C@H](CC(=O)O)NC2=O (some centres unmarked) .
8.6 µM
